Task for the reader: assign each of the following molecules its reported TGI.
# System: U-251
# measurementNotes: Antiproliferative activity against human U251 cells assessed as growth inhibition after 48 hrs by sulforhodamine B assay
# Format: functional
# conditions: U-251, 48 h
// unit must come after the numeric part

Some entries whose results are on file:
>>> print(df.to_string())
                                   molecule  observed
0  CNC(=O)c1cc(Oc2ccc3nc(NC(=O)c4cc(C(F)(F)F)cc(C(F)(F)F)c4)sc3c2)ccn1   13.7 µM
1  CNC(=O)c1cc(Oc2ccc3nc(NC(=O)Nc4ccc(Cl)c(Cl)c4)sc3c2)ccn1   3.46 µM
2  CNC(=O)c1cc(Oc2ccc3nc(NC(=O)Nc4ccc(Cl)c(C(F)(F)F)c4)sc3c2)ccn1   3.75 µM
3  CNC(=O)c1cc(Oc2ccc(NC(=O)Nc3ccc(Cl)c(C(F)(F)F)c3)cc2)ccn1 [SORAFENIB]   6.31 µM

query: Any idea what its TGI is? The molecule is CNC(=O)c1cc(Oc2ccc3nc(NC(=O)Nc4cc(C(F)(F)F)cc(C(F)(F)F)c4)sc3c2)ccn1
result: 2.2 µM
